Where these numbers come from: paper PMC8769072

- study.system: KPNA4 ARM (Homo sapiens, UniProt O00629)
- Construct: O00629; KPNA4; Arm; 68; 487; pETM33/pETM41; Genescript; made in house; host or cells: bacteria (E. coli BL21(DE3) gold is named only for the phage-selection preparations)
- Sequence (O00629 68-487): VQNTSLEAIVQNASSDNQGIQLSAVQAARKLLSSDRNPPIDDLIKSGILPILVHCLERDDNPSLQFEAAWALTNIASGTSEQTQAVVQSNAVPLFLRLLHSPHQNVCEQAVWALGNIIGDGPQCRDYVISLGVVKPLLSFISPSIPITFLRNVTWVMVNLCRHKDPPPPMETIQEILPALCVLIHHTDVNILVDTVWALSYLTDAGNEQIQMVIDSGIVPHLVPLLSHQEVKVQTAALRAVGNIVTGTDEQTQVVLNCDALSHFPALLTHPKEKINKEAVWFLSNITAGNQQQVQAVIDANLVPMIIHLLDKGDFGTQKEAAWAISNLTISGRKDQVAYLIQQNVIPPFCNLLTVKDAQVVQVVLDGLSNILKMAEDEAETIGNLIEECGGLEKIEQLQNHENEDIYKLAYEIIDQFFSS
- assay.name: FP competition, KPNA4 ARM minor pocket (FITC-NCOR2 probe)
- Type: binding
Where no end group is shown, it is not given here.
Categories are defined by ranges of IC50, namely group A (below 0.5 µM), group B (0.5 µM to below 20 µM), group C (20 µM or more)

Inquiry: Field: class (IC50) — entry: Ac-EISLKRSYESVEGNIK-NH2 [NCOR1 Wt]
Reply text: group B

Inquiry: And DHQFPAKRPRLSEPQG-NH2 [HJURP] ?
Reply text: group C

Inquiry: Cool, now GVKRTYSEVYPGQQYL-NH2 [ZMIZ2]
Reply text: group A

Inquiry: Similarly, GKKRTFDETVSTYVPL-NH2 [TPX2] ?
Reply text: group A

Inquiry: What do you have for DLKRRLDSITSSQSSA-NH2 [KDR] ?
Reply text: group C

Inquiry: What do you have for PKRTYDMMEGRVGRAI-NH2 [NCOR2] ?
Reply text: group A

Inquiry: Next up: IPEKKQRLEEATTICL-NH2 [AFF2]
Reply text: group C

Inquiry: Now consider PFKRPHSTISDSSTSS-NH2 [PLEKHG4B] .
Reply text: group B

Inquiry: Would you mind doing STMKRKHDEIQRSLPV-NH2 [ZBED9] as well?
Reply text: group B

Inquiry: Again, but for ELKRKLEQEQKLVEVL-NH2 [MKL2]
Reply text: group C

Inquiry: Okay, and SLAPVKRTYEQMEFPL-NH2 [ADNP] ?
Reply text: group B
